Values from the NIST ThermoML archive (doi:10.1016/j.fluid.2017.03.011)

- method: an = ratio of the nth substance listed
- setup-conditions: 303.15 K; 101 kPa; Liquid; Falling or rolling sphere viscometry; a2 = 3
± gives the expanded uncertainty stated by the source.
Catalogue of molecules with associated viscosity
property-label: viscosity

molecule | property-label | data-value
CCC[N+](CCC)(CCC)Cc1ccccc1.[Cl-] [benzyltripropylammonium chloride] + OCCO | viscosity | 164.6 ± 6.9 mPa·s
CCC[N+](CCC)(CCC)Cc1ccccc1.[Cl-] [benzyltripropylammonium chloride] + CC(O)C(=O)O | viscosity | 2276.7 ± 300 mPa·s
CCC[N+](CCC)(CCC)Cc1ccccc1.[Cl-] [benzyltripropylammonium chloride] + Oc1ccccc1 | viscosity | 237.1 ± 13 mPa·s
CCC[N+](CCC)(CCC)Cc1ccccc1.[Cl-] [benzyltripropylammonium chloride] + OCC(O)CO | viscosity | 1890.5 ± 230 mPa·s

----------
- method: an = ratio of the nth substance listed
- setup-conditions: 333.15 K; 101 kPa; Liquid; Alternating current cell with electrodes; a2 = 3
Catalogue of electrical conductivity readings, one per entry.
property-label: electrical conductivity (S/m)

compound | data-value
CCC[N+](CCC)(CCC)Cc1ccccc1.[Cl-] [benzyltripropylammonium chloride] + OCC(O)CO | 0.0596
CCC[N+](CCC)(CCC)Cc1ccccc1.[Cl-] [benzyltripropylammonium chloride] + OCCO | 0.26
CCC[N+](CCC)(CCC)Cc1ccccc1.[Cl-] [benzyltripropylammonium chloride] + CC(O)C(=O)O | 0.0267
CCC[N+](CCC)(CCC)Cc1ccccc1.[Cl-] [benzyltripropylammonium chloride] + Oc1ccccc1 | 0.138

----------
- method: an = ratio of the nth substance listed
- setup-conditions: 343.15 K; 101 kPa; Liquid; Vibrating tube method; a2 = 3

compound | mass density, kg/m3
CCC[N+](CCC)(CCC)Cc1ccccc1.[Cl-] [benzyltripropylammonium chloride] + Oc1ccccc1 | 1027.64
CCC[N+](CCC)(CCC)Cc1ccccc1.[Cl-] [benzyltripropylammonium chloride] + OCC(O)CO | 1102.17
CCC[N+](CCC)(CCC)Cc1ccccc1.[Cl-] [benzyltripropylammonium chloride] + OCCO | 1032.88
CCC[N+](CCC)(CCC)Cc1ccccc1.[Cl-] [benzyltripropylammonium chloride] + CC(O)C(=O)O | 1084.99

----------
- method: an = ratio of the nth substance listed
- setup-conditions: 338.15 K; 101 kPa; Liquid; Vibrating tube method; a2 = 3
Numbers after ± are expanded uncertainties.
Catalogue of mass density readings, one per entry.

molecule | mass density
CCC[N+](CCC)(CCC)Cc1ccccc1.[Cl-] [benzyltripropylammonium chloride] + OCC(O)CO | 1105.24 ± 0.82 kg/m3
CCC[N+](CCC)(CCC)Cc1ccccc1.[Cl-] [benzyltripropylammonium chloride] + Oc1ccccc1 | 1030.87 ± 0.9 kg/m3
CCC[N+](CCC)(CCC)Cc1ccccc1.[Cl-] [benzyltripropylammonium chloride] + OCCO | 1035.95 ± 0.91 kg/m3
CCC[N+](CCC)(CCC)Cc1ccccc1.[Cl-] [benzyltripropylammonium chloride] + CC(O)C(=O)O | 1088.54 ± 11 kg/m3

----------
- method: an = ratio of the nth substance listed
- setup-conditions: 323.15 K; 101 kPa; Liquid; Falling or rolling sphere viscometry; a2 = 3
# viscosity per record follows
property-label: viscosity (mPa·s)

compound | data-value
CCC[N+](CCC)(CCC)Cc1ccccc1.[Cl-] [benzyltripropylammonium chloride] + OCC(O)CO | 359.2
CCC[N+](CCC)(CCC)Cc1ccccc1.[Cl-] [benzyltripropylammonium chloride] + Oc1ccccc1 | 57.6
CCC[N+](CCC)(CCC)Cc1ccccc1.[Cl-] [benzyltripropylammonium chloride] + CC(O)C(=O)O | 319
CCC[N+](CCC)(CCC)Cc1ccccc1.[Cl-] [benzyltripropylammonium chloride] + OCCO | 54.4
